Attribution: ChEMBL document CHEMBL1151039

organism: Rattus norvegicus; assay: In vitro inhibition of acetylcholine induced phosphatidyl inositol hydrolysis in a rat cerebral cortex slice preparation; assay type: functional
endpoint: IC50

Qu. What value of IC50 has been reported for the following compound? "CN1[C@@H]2C[C@@H](OC(=O)[C@H](CO)c3ccccc3)C[C@H]1[C@@H]1O[C@@H]12"
Ans. 8.9 nM
